- Tested on: Coptotermes formosanus
- TEST PROTOCOL: Termiticidal activity against Coptotermes formosanus placed on 0.05 % wt/wt compound treated filter paper assessed as termite mortality measured 9 days post compound exposure
- Type: functional
So I've got a bunch of compounds here, and I need their mortality values.
Give bare numbers, in %.

Sample records with mortality:
• COC1=C(OC)C(=O)C(C)=C(C)C1=O [Aurantiogliocladin] = 0
• CCCCCC1=CC(=O)C=C(OC)C1=O = 3.3
• CC1=CC(=O)C(C(C)C)=CC1=O = 0
• CC1=C(C)C(=O)C(Cl)=C(Cl)C1=O = 1.3

Now let's try a different one.
What value of mortality has been reported for the following compound? "COC1=C(OC)C(=O)C(CC=C(C)C)=C(C)C1=O"
0
